The reported numbers originate from the supplement of paper PMC10724198.

# Tested on: Saccharomyces cerevisiae
# assay.protocol: protein stability index of tFT-peptide fusion in deletion strain of DAS1 (PSI (0-1 scale)); higher = more stable (slower turnover)
The sequences listed here are annotated with their protein stability index.
Lab note: jot down the number only; don't add units.

Reference set (8 entries):
VRGEVGGWRLVG | 0.606
VRGAVGGWELVG | 0.63
ARWLVGLWRGAS | 0.706
PDKRNYLIKLLN | 0.601
VRGAVHGWRLVG | 0.679
KKHKKGQKTKIN | 0.619
FSMRQTFRYWVN | 0.558
PDKRWHLIKLLN | 0.633

Report protein stability index for `CTSCGEKFRTNN` tested on Saccharomyces cerevisiae.
0.666

I'm curious: which protein stability index was measured for `ARWRVGSWRGAS` tested on Saccharomyces cerevisiae?
0.692

Short answer please: protein stability index, Saccharomyces cerevisiae, entry `LVVYLSCVACEN`
0.132

Give Saccharomyces cerevisiae protein stability index for `CRWRVGLWRGAS`
0.697

GET /values?readout=protein stability index&system=Saccharomyces cerevisiae&item= `PSLAASFWRVVH`
0.695

# query: protein stability index | item `LKIFRQKMNHQN` | system: Saccharomyces cerevisiae
0.669

Hello, I am looking for reported protein stability index with Saccharomyces cerevisiae for `PDKRNHLIKLLD` . Could you help?
0.611

API: value(readout=protein stability index, system=Saccharomyces cerevisiae) for record `KKHKKGQKAKIN`
0.611

* * *

# System: Saccharomyces cerevisiae
# assay.protocol: protein stability index of tFT-peptide fusion (C-terminal peptide) (PSI (0-1 scale)); higher = more stable (slower turnover)
# condition.details: genetic background: wild type; temperature: 30 C
measurement.kind: protein stability index
The reply should be a number, written without any unit.

Some sequences with recorded protein stability index:
ASEGRWVSVMGG | 0.686
GWFFFGCFECGG | 0.731
FGCGLYPLRVLH | 0.604
QKKKKKIKEHSK | 0.626
VAGVLVFGKVGG | 0.694
SPPPRSPRPFPG | 0.676

Now take the following sequence into account.
Lab note: need protein stability index for `PLPPPPTPPSLS` on Saccharomyces cerevisiae, anyone have it?
0.716

* * *

protein stability index for assorted sequences
# Test system: Saccharomyces cerevisiae
# assay.protocol: protein stability index of tFT-peptide fusion (C-terminal peptide) (PSI (0-1 scale)); higher = more stable (slower turnover)
# condition.details: genetic background: wild type; temperature: 30 C
Field format: numeric only.

GVSTGSGASVAA | 0.659
HAGLLTSSHPGR | 0.705
PSPSPPPPPPGL | 0.681

Recorded protein stability index for `CLCYFLFYFLFV` with Saccharomyces cerevisiae, please?
0.501

* * *

Examples of sequences with documented protein stability index follow.
# System: Saccharomyces cerevisiae
# assay.protocol: protein stability index of tFT-peptide fusion (C-terminal peptide) (PSI (0-1 scale)); higher = more stable (slower turnover)
# condition.details: genetic background: doa10 deletion; temperature: 30 C
Could you respond with only the numeric value?

EKTKTKRERKIN | 0.165
FFLSFRLFSILL | 0.412
PRPETCHAVAVR | 0.363
NLVCLDPFLVFV | 0.475
GFGDKVPWRWVI | 0.124
TCPFTIHRLKVG | 0.118
LPSLPPPPPPPP | 0.654
FITFLVFVGFFL | 0.263

Field request: protein stability index | item: `LLFCFSVILFTC`
0.0562

State the recorded protein stability index for this entry: `GLYFFVVRIFKV`
0.167

What value of protein stability index has been recorded for this entry: `CKKATILRIKSM`
0.17

GET /values?readout=protein stability index&item= `RILKLPGHVNDV`
0.652

# lookup: protein stability index of `PVLIFTWVIVCH`
0.0332
